The measurements presented in this section are drawn from patent US9353089B2.

- target entity: Plasmepsin-2 (PM-2; Plm II) (Plasmodium falciparum (isolate HB3))
- measurement protocol: Plasmepsin-2 enzyme inhibition assay
- Assay type: biochemical
- settings: Table 13; read-out: PM-2 IC50
- Description: Plasmepsin-2 (PM-2; Plm II) and Plasmepsin (PM-4; Plm IV) expression and purification was performed following the published protocols (Istvan E S and Goldberg D E, 2005). […] After incubation the reaction at room temperature for 60 min, the fluorescence intensity at Ex/Em=360 nm/535 nm was measured using EnVision multilabel plate reader (Perkin-Elmer). […]
pIC50: −log10 of the molar value.
Record Condition met whenever pIC50 is at 8 or higher; record Condition not met when lower.

// below: answered molecules
[[record]]
molecule = "COc1ccc(C2(c3ccc(OC)cc3)NC(=N)N(C3CCCC3)C2=O)cc1 [Example 159]"
target_entity = "Plasmepsin-2 (PM-2; Plm II) (Plasmodium falciparum (isolate HB3))"
discrete_label = "Condition not met"

[[record]]
molecule = "COc1cccc(-c2cccc(C3(C4CC4)NC(=N)N(C4CCCCC4)C3=O)c2)c1 (centres unmarked) [Example 328]"
target_entity = "Plasmepsin-2 (PM-2; Plm II) (Plasmodium falciparum (isolate HB3))"
discrete_label = "Condition not met"

[[record]]
molecule = "COc1ccc(C2(c3ccc(OC)cc3)NC(=N)N(Cc3ccccc3C)C2=O)cc1 [Example 303]"
target_entity = "Plasmepsin-2 (PM-2; Plm II) (Plasmodium falciparum (isolate HB3))"
discrete_label = "Condition met"


Pending molecule:
Problem: Hi team, for COc1ccc(C2(c3ccc(OC)cc3)NC(=N)N(Cc3ccccc3C(F)(F)F)C2=O)cc1 [Example 304] , is the recorded pIC50 at or above 8?
Result: Condition met

----------
- target entity: recombinant human BACE1 (Homo sapiens, UniProt P56817)
- Sequence (P56817 46-501 limits assumed): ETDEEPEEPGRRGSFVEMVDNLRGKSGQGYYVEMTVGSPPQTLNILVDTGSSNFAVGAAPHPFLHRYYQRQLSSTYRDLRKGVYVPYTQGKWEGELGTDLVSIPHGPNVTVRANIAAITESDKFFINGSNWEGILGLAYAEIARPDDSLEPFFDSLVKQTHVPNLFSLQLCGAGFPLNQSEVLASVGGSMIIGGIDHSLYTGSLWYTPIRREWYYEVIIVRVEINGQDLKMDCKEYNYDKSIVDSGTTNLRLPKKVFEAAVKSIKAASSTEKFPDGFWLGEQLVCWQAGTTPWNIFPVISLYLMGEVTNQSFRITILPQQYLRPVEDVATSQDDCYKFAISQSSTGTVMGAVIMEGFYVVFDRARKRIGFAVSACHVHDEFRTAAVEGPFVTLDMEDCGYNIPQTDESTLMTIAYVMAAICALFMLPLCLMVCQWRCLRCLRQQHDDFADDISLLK
- measurement protocol: β-Secretase (BACE1) enzyme inhibition FRET assay
- Format: biochemical
- settings: Table 12; read-out: BACE1 IC50
- Protocol: The enzymatic inhibition activity assays were determined using the fluorescence resonance energy transfer (FRET) assay. The assays were performed in a 384-well plate format. […] CatD and CatE were activated by incubation in assay buffer (0.1 M NaOAc, 0.2 M NaCl, pH 3.5) at room temperature for 30 min. […] After 60 min incubation at room temperature, the time-resolved fluorescence at Ex/Em=360 nm/460 nm was measured on an EnVision multilabel plate reader (Perkin-Elmer). […]
assay endpoint: pIC50
Give bare numbers, as −log10 of the molar value.

[[record]]
compound = "COc1cccc(-c2cccc(C3(c4ccccc4)NC(=N)N(C4CCOCC4)C3=O)c2)c1 (centres unmarked) [Example 324]"
target_entity = "recombinant human BACE1 (Homo sapiens, UniProt P56817)"
observed = 5.61


Consider now this further compound.
Problem: Provide pIC50 value for the following compound: N=C1NC(c2ccccc2)(c2cccc(-c3cccnc3)c2)C(=O)N1C1CCCCC1 (centres unmarked) [Example 136]
Result: 4.74

----------
- target entity: Plasmepsin (PM-4; Plm IV) (Plasmodium falciparum (isolate 3D7), UniProt Q8IM16)
- Sequence (Q8IM16 122-449 limits assumed): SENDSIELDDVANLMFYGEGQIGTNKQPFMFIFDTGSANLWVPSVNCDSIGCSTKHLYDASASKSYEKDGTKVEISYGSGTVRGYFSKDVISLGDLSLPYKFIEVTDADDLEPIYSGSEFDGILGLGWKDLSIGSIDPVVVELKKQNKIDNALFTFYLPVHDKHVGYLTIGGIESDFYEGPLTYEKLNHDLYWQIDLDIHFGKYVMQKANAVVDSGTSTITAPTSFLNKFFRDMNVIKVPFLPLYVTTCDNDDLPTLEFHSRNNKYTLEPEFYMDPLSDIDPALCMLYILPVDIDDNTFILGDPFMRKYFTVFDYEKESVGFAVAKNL
- measurement protocol: Plasmepsin-4 enzyme inhibition assay
- settings: Table 8
Binarize IC50 at 0.03 µM; below is condition met, at or above is condition not met.

// below: answered compounds
[[record]]
compound = "COc1ccc(C2(c3ccc(OC)cc3)NC(=N)N(C3CCNCC3)C2=O)cc1"
discrete_label = "condition not met"

[[record]]
compound = "COc1ccc(C2(c3ccc(OC)cc3)NC(=N)N(C3CCN(C(=O)OC(C)(C)C)CC3)C2=O)cc1"
discrete_label = "condition met"

[[record]]
compound = "COc1ccc(C2(c3ccc(OC)cc3)NC(=O)N(C3CCCCC3)C2=O)cc1"
discrete_label = "condition not met"

[[record]]
compound = "N=C1NC(c2ccccc2)(c2cccc(-c3cccnc3)c2)C(=O)N1C1CCCCC1 (stereo not shown)"
discrete_label = "condition not met"

[[record]]
compound = "COc1cccc(C2(c3cccc(OC)c3)NC(=N)N(C3CCCCC3)C2=O)c1"
discrete_label = "condition not met"


Problem: Lab log: compare recorded IC50 with 0.03 µM; is it strictly lower for COc1ccc(C2(c3ccc(OC)cc3)NC(=N)N(C3CCN(C)CC3)C2=O)cc1 ?
Result: condition not met

Problem: Lab log: compare recorded IC50 with 0.03 µM; is it strictly lower for COc1ccc(C2(c3ccc(OC)cc3)NC(=N)N(CC3CCOCC3)C2=O)cc1 ?
Result: condition not met

Problem: Lab log: compare recorded IC50 with 0.03 µM; is it strictly lower for CCC(CN1C(=N)NC(c2ccccc2)(c2ccccc2)C1=O)c1ccccc1 (stereo not shown) [drawing 192] ?
Result: condition not met

Problem: Lab log: compare recorded IC50 with 0.03 µM; is it strictly lower for COc1ccc(C2(c3ccc(OC)cc3)NC(=N)N(C3CCOCC3)C2=O)cc1 ?
Result: condition met

Problem: Lab log: compare recorded IC50 with 0.03 µM; is it strictly lower for COc1ccc(C2(c3cccc(-c4cccnc4)c3)NC(=N)N(C3CCCCC3)C2=O)cc1 (stereo not shown) ?
Result: condition met

----------
Can you tell me pIC50 for the items I'm about to list?
- target entity: Plasmepsin-2 (PM-2; Plm II) (Plasmodium falciparum (isolate HB3), UniProt P46925)
- Sequence (P46925 125-453 limits assumed): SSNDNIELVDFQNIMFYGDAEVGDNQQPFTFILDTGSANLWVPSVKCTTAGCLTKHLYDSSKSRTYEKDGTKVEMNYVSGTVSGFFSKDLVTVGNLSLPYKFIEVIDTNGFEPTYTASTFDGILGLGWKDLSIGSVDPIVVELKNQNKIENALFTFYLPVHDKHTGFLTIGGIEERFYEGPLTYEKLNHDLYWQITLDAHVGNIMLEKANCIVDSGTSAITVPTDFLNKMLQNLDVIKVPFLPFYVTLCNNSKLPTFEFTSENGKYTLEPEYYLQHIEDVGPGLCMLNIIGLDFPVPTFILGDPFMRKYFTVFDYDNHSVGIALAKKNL
- measurement protocol: Plasmepsin-2 enzyme inhibition assay
- Type: biochemical
- settings: Table 13; read-out: PM-2 IC50
Numbers only, as −log10 of the molar value.

Known results for compounds:
[[record]]
compound = "COc1ccc(C2(c3cccc(-c4cccnc4)c3)NC(=N)N(C3CCCCC3)C2=O)cc1 (stereo not shown) [Example 171]"
assay_endpoint = "pIC50"
observed = 8.16

[[record]]
compound = "N=C1NC(c2cccc(-c3cncc(Cl)c3)c2)(C2CC2)C(=O)N1C1CCOCC1 (stereo not shown) [Example 489]"
assay_endpoint = "pIC50"
observed = 6.68

[[record]]
compound = "COc1ccc(C2(c3ccc(OC)cc3)NC(=N)N(C3CC3)C2=O)cc1 [Example 158]"
assay_endpoint = "pIC50"
observed = 6.41


State the recorded pIC50 for every item in the following list.
1. N=C1NC(c2cccc(-c3cccnc3)c2)(C2CC2)C(=O)N1C1CCOCC1 (stereo not shown) [Example 487]
2. COc1ccc(C2(c3ccc(OC)cc3)NC(=N)N(CC3CCN(C(=O)OC(C)(C)C)CC3)C2=O)cc1 [Example 313]
3. COc1ccc(C2(C3CC3)NC(=N)N(C3CCOCC3)C2=O)cc1 (stereo not shown) [Example 325]
4. COc1ccc(C2(c3cncnc3)NC(=N)N(C3CCOCC3)C2=O)cc1 (stereo not shown) [Example 333]
5. COc1ccc(C2(c3ccc(OC)cc3)NC(=N)N(C3CCN(C)CC3)C2=O)cc1 [Example 166]
6. Cc1ccc(C2(c3ccc(C)cc3)NC(=N)N(C3CCCCC3)C2=O)cc1 [Example 156]
7. COc1ccc(C2(c3cnn(C)c3)NC(=N)N(C3CCOCC3)C2=O)cc1 (stereo not shown) [Example 336]
8. COc1ccc(C2(c3ccc(OC)cc3)NC(=N)N(C3CCN(C(=O)CCN(C)C)CC3)C2=O)cc1 [Example 322]

Result:
6.29
7.96
6.37
6.19
7.46
7.85
6.40
7.69

State the recorded pIC50 for every item in the following list.
1. N#Cc1cncc(-c2cccc(C3(C4CC4)NC(=N)N(C4CCOCC4)C3=O)c2)c1 (stereo not shown) [Example 488]
2. COc1cccc(C2(c3cccc(OC)c3)NC(=N)N(C3CC3)C2=O)c1 [Example 167]
3. COc1ccc(C2(c3ccc(OC)cc3)NC(=N)N(CC3CCN(C)CC3)C2=O)cc1 [Example 308]
4. COc1cccc(C2(c3cccc(OC)c3)NC(=N)N(C3CCCC3)C2=O)c1 [Example 168]
5. COc1ccc(C2(c3ccc(OC)c(OC)c3)NC(=N)N(C3CCCCC3)C2=O)cc1OC [Example 173]

Result:
1. 6.35
2. 5.55
3. 7.12
4. 6.96
5. 7.26

State the recorded pIC50 for every item in the following list.
1. N=C1NC(c2ccc(OC(F)(F)F)cc2)(c2ccc(OC(F)(F)F)cc2)C(=O)N1C1CCCCC1 [Example 201]
2. COc1ccc(C2(c3ccc(OC)cc3)NC(=N)N(Cc3cccc(C)c3C)C2=O)cc1 [Example 277]
3. COc1ccc(C2(c3ccc(OC)cc3)NC(=N)N(C3CCOCC3)C2=O)cc1 [Example 176]
4. COc1ccc(C2(c3ccc(OC)cc3)NC(=N)N(C3CCCCCC3)C2=O)cc1 [Example 220]
5. N=C1NC(c2ccccc2)(c2ccccc2)C(=O)N1Cc1ccccc1 [Example 102]

Result:
7.26
8.36
8.17
8.63
7.48

State the recorded pIC50 for every item in the following list.
1. N=C1NC(c2ccccc2)(c2cccc(OCc3ccccc3)c2)C(=O)N1C1CCCCC1 (stereo not shown) [Example 228]
2. COc1ccc(C2(C3CCCC3)NC(=N)N(C3CCOCC3)C2=O)cc1 (stereo not shown) [Example 335]

Result:
1: 8.54; 2: 7.04
